src = patent US20220127354A1

study.system: T1, ckCDH19(1-43)::FLAG::ckCDH19(44-249)::huCDH19(250-364)::ckCDH19(365-776) (construct M, Hu EC3) (human/chicken chimera)
T1 construct: leader (1-43 of the entry) left out
test.method.notes: flow cytometry, transfected 293T cells, 2 mM CaCl2;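 further: binding of Alexa647-labelled anti-CDH19 antibodies to cells expressing human/chicken CDH19 chimeras, read as cell-bound fluorescence, with mock-transfected cells as controls, n.d. meaning not determined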
readout: binding result

binder: anti-CDH19 antibody 2G6 (Ab ID 13588) (antibody, human IgG1, lambda, V domains shown, Bin 4) VH: QVQLVESGGGVVQPGRSLRLSCAASGFTFSSYGMHWVRQAPGKGLEWVAFIWYDGSNKYYADSVKDRFTISRDNSKNTLYLQMKSLRAEDTAVYYCARRAGIIGTIGYYYGMDVWGQGTTVTVSS VL: SYELTQPPSVSVSPGQTASITCSGDRLGEKYTCWYQQRPGQSPLLVIYQDTKRPSGIPERFSGSNSGNTATLTISGTQAMDEADYYCQAWDSSTVVFGGGTKLTVLG
value: binds
